Tested on: Erysiphe graminis f. sp. tritici
test description: Test E: wheat powdery mildew, spray the day before inoculation (disease rating, 100 = 100% disease control)
Type: in vivo
protocol conditions: sprayed the day before inoculation, 7 days at 20° C., unmarked compounds (no asterisk, not 40 or 10 ppm)
Entries and their Test E disease rating (100 = 100% disease control, 0 = no disease control)
result type: Test E disease rating (100 = 100% disease control, 0 = no disease control)

[[record]]
molecule = "CC(C)(NC(=O)c1csc(C2CCN(C(=O)Cc3ccccc3Cl)CC2)n1)c1ccccc1 [compound 263]"
recorded_value = 0

[[record]]
molecule = "Cc1cc(C(F)(F)F)nn1CC(=O)N1CCC(c2nc(C(=O)N3Cc4ccccc4C3)cs2)CC1 [compound 295]"
recorded_value = 0

[[record]]
molecule = "Cc1cc(C(F)(F)F)nn1CC(=O)N1CCC(c2nc(C(=O)N3CCCC4CCCCC43)cs2)CC1 (stereo not drawn) [compound 300]"
recorded_value = 0


----------
Entries and their Test C disease rating (100 = 100% disease control, 0 = no disease control)
System: Phytophthora infestans
test description: whole plant or invertebrate
Assay type: in vivo
protocol conditions: tomato late blight; spray the day before inoculation; compounds without asterisk (not 40 or 10 ppm)
result type: Test C disease rating (100 = 100% disease control, 0 = no disease control) (%)

[[record]]
compound = "Cc1cc(C(F)(F)F)nn1CC(=O)N1CCC(c2nc(C(=O)N(C)C3c4ccccc4C=CC3C)cs2)CC1 (centres unmarked)"
recorded_value = 100

[[record]]
compound = "Cc1ccc(C)c(CC(=O)N2CCC(c3nc(C(=O)N(C)[C@H](C)c4ccccc4)cs3)CC2)c1"
recorded_value = 100

[[record]]
compound = "CC[C@H](c1ccccc1)N(C)C(=O)c1csc(C2CCN(C(=O)Cc3ccccc3OC)CC2)n1"
recorded_value = 100

[[record]]
compound = "Cc1ccc(C)c(CC(=O)N2CCC(c3nc(C(=O)N(C)C4CCCc5sccc54)cs3)CC2)c1 (centres unmarked)"
recorded_value = 51

[[record]]
compound = "Cc1nc(CC(=O)N2CCC(c3nc(C(=O)N(C)[C@H](C)c4ccccc4)cs3)CC2)c(C)s1"
recorded_value = 100

[[record]]
compound = "CCOc1ccccc1CC(=O)N1CCC(c2nc(C(=O)N(C)[C@H](C)c3ccccc3)cs2)CC1"
recorded_value = 78

[[record]]
compound = "COC(=O)Cc1ccccc1CC(=O)N1CCC(c2nc(C(=O)N(C)[C@H](C)c3ccccc3)cs2)CC1"
recorded_value = 26

[[record]]
compound = "CCc1nc(C)cn1CC(=O)N1CCC(c2nc(C(=O)N(C)[C@H](C)c3ccccc3)cs2)CC1"
recorded_value = 0

[[record]]
compound = "CC[C@H](c1ccccc1)N(C)C(=O)c1csc(C2CCN(C(=O)Cn3nc(C)cc3C)CC2)n1"
recorded_value = 100

[[record]]
compound = "Cc1ccc(C)c(CC(=O)N2CCC(c3nc(C(=O)N(C)[C@H](C)c4ccc5ccccc5c4)cs3)CC2)c1"
recorded_value = 24

[[record]]
compound = "Cc1cccc(CC(=O)N2CCC(c3nc(C(=O)N(C)Cc4cccnc4)cs3)CC2)c1"
recorded_value = 60

[[record]]
compound = "CCOc1cccc(CC(=O)N2CCC(c3nc(C(=O)N(C)[C@H](C)c4ccccc4)cs3)CC2)c1"
recorded_value = 77

[[record]]
compound = "CN(Cc1ccccn1)C(=O)c1csc(C2CCN(C(=O)Cc3cccc(C(F)(F)F)c3)CC2)n1"
recorded_value = 8

[[record]]
compound = "Cc1ccc(C)c(CC(=O)N2CCC(c3nc(C(=O)N(C)[C@H](C)C4CCCCC4)cs3)CC2)c1"
recorded_value = 68

[[record]]
compound = "Cc1cc(C(F)(F)F)nn1CC(=O)N1CCC(c2nc(C(=O)N(C)C3CCCc4ccccc43)cs2)CC1 (centres unmarked)"
recorded_value = 100

[[record]]
compound = "Cc1cc(C(F)(F)F)nn1CC(=O)N1CCC(c2cc(C(=O)N(C)[C@@H]3CCCc4ccccc43)no2)CC1"
recorded_value = 100

[[record]]
compound = "Cc1ccc(C)c(CC(=O)N2CCC(c3nc(C(=O)N(C)C(CC(C)C)c4ccccc4)cs3)CC2)c1 (centres unmarked)"
recorded_value = 86

[[record]]
compound = "Cc1ccc(C)c(CC(=O)N2CCC(c3nc(C(=O)N(C)[C@H](C)c4ccc(F)cc4)cs3)CC2)c1"
recorded_value = 100

[[record]]
compound = "CC[C@H](c1ccccc1)N(C)C(=O)c1csc(C2CCN(C(=O)Cc3cccc(C(F)(F)F)c3)CC2)n1"
recorded_value = 100

[[record]]
compound = "Cc1cnn(CC(=O)N2CCC(c3nc(C(=O)N(C)[C@H](C)c4ccccc4)cs3)CC2)c1"
recorded_value = 75

[[record]]
compound = "Cc1cc(C(F)(F)F)nn1CC(=O)N1CCC(c2nc(C(=O)N(C)C3c4ccccc4CCC3(C)C)cs2)CC1 (centres unmarked)"
recorded_value = 62

[[record]]
compound = "Cc1ccc(C)c(CC(=O)N2CCC(c3nc(C(=O)N(C)C4CCCc5c4ccc4ccccc54)cs3)CC2)c1 (centres unmarked)"
recorded_value = 0

[[record]]
compound = "Cc1ccc(C)c(CC(=O)N2CCN(c3nc(C(=O)N(C)[C@H](C)c4ccccc4)co3)CC2)c1"
recorded_value = 100

[[record]]
compound = "C[C@H](c1ccccc1)N(C)C(=O)c1csc(C2CCN(C(=O)Nc3cccc(C(F)(F)F)c3)CC2)n1 [compound 156]"
recorded_value = 62

[[record]]
compound = "C[C@H](c1ccccc1)N(C)C(=O)c1csc(C2CCN(C(=O)Cc3cc(Cl)ccc3Cl)CC2)n1"
recorded_value = 100

[[record]]
compound = "COc1ccc(C)cc1NC(=S)N1CCC(c2nc(C(=O)N(C)[C@H](C)c3ccccc3)cs2)CC1"
recorded_value = 99

[[record]]
compound = "C[C@H](c1ccccc1)N(C)C(=O)c1csc(C2CCN(C(=O)Cc3ccccc3OC(F)(F)F)CC2)n1"
recorded_value = 98

[[record]]
compound = "C[C@H](c1ccccc1)N(C)C(=O)c1coc(C2CCN(C(=O)Nc3cccc(C(F)(F)F)c3)CC2)n1"
recorded_value = 95

[[record]]
compound = "CCC1C=Cc2ccccc2C1N(C)C(=O)c1csc(C2CCN(C(=O)Cn3nc(C(F)(F)F)cc3C)CC2)n1 (centres unmarked)"
recorded_value = 100

